tested on: P. falciparum male gametocytes; test: P. falciparum Dual Gamete Formation Assay (PfDGFA), male readout (exflagellation); format: cell-based, Plasmodium falciparum NF54; conditions: PfDGFA at 2µM, 24h preincubation with gametocytes prior to induction of gametogenesis; replicate R3
Measured property: % inhibition male (individual replicates) R3 (%)
// return numeric value only (unit: %, not printed)

Example entries and their recorded answers appear below.
[[record]]
compound = "Cc1c(Cc2ccc(C(C)C)cc2)cnc2nc(N)nc(N)c12"
numeric_result = -13.9

[[record]]
compound = "COc1ccc(NC(=O)[C@H](Cc2ccccc2)Nc2cc(C)nc(NCCc3ccccn3)n2)cc1.O=C(O)C(F)(F)F"
numeric_result = -30.0

[[record]]
compound = "Cl.NC1=NC(CCc2ccccc2)N(c2ccc(Cl)cc2)C(N)=N1 (centres unmarked)"
numeric_result = -9.1


Enquiry: Which % inhibition male (individual replicates) R3 reading was recorded for the compound COc1cc2c(c(Cl)c1OC)CCN(C(=O)C(F)(F)F)CC2c1ccccc1 (centres unmarked) ?
Return: 19.8

Enquiry: Which % inhibition male (individual replicates) R3 reading was recorded for the compound Cl.Nc1nc(N)c2c(ccc3c2cnn3S(=O)(=O)N2CCCC2)n1 ?
Return: -12.1

Attribution: paper PMC10584170
